- Test method notes: A549 NSCLC cell proliferation inhibitors – ATP luminescence, human non-small cell lung line, primary screen (AID 371);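 also: compound exposure lasted 72 h before the ATP read; 0% = untreated cell signal and 100% = no luminescence left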
- Condition context: at 10 µM
The whole screen tested about 3,300 compounds, of which about 280 (8.5%) were called active.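 The calls were made as follows: active = mean growth inhibition over the two runs of 50% or more; inactive = mean growth inhibition under 50%.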 For the sample, actives were picked, then their nearest neighbours and some compounds at random.
Can you answer with just one of these options? 1 (yes) = active, 0 (no) = inactive

Would you please look over these solved cases?
INSERT INTO results (compound, answer_label) VALUES
  ('CC(C)OC(=O)C(C#N)c1nc2ccccc2nc1N1CCCC1 (configuration not stated)', '0 (no)'),
  ('CCOc1ccc(-n2c3nc4ccccc4nc3c3c(=O)n(Cc4ccco4)cnc32)cc1', '0 (no)'),
  ('CCC(=O)Oc1ccc(C(CC)C(CC)c2ccc(OC(=O)CC)cc2)cc1 (configuration not stated)', '1 (yes)'),
  ('COc1cc2nc(N3CCN(C(=O)C4COc5ccccc5O4)CC3)nc(N)c2cc1OC (configuration not stated)', '1 (yes)'),
  ('COCCCn1cnc2c(c1=O)c1nc3ccccc3nc1n2CCc1ccccc1', '0 (no)'),
  ('COc1ccc2[nH]c(C)c(C(=O)CN3CCN(C(=O)c4ccco4)CC3)c2c1', '0 (no)');

Prompt line: Assay result, entry COc1cc2nc(N3CCN(C(=O)C4CCCO4)CC3)nc(N)c2cc1OC (configuration not stated) — outcome?
Response line: 0 (no)

Prompt line: Any idea what this test logged for CCOC(=O)CNC(=O)CNC(=O)c1ccc(OC)cc1 ?
Response line: 0 (no)

Prompt line: Called result for [N-]=[N+]=CC(=O)c1ccnc(C(=O)C=[N+]=[N-])c1
Response line: 0 (no)

Prompt line: Check the results log: what was the call for COc1ccc(C(CC(=O)N2CCOCC2)C(C)C)cc1 (configuration not stated) ?
Response line: 0 (no)

Prompt line: Kindly provide the recorded test outcome for the following compound: CC(=O)Oc1ccc(C(c2ccc(OC(C)=O)cc2)c2ccccn2)cc1
Response line: 0 (no)

Prompt line: What is the recorded call for this compound in the test? CC(C)CN1C(=O)NC(NC(=O)c2cccnc2)(C(F)(F)F)C1=O (configuration not stated)
Response line: 0 (no)

Prompt line: For this compound, state the assay outcome: Cc1ccc2[nH]c3c(c2c1)CN(C(=O)CN1CCCc2ccccc21)CC3
Response line: 1 (yes)

Prompt line: What outcome does the record of this test show for Cc1nn(C)cc1/C=N/n1nnnc1N ?
Response line: 0 (no)

Prompt line: I would be grateful if you could indicate the recorded call for Cc1cc(C)cc(-n2c3nc4ccccc4nc3c3c(=O)n(Cc4ccco4)cnc32)c1 .
Response line: 1 (yes)

Prompt line: Could you check what this test reported for CCN(CC)CCCN1C(=O)C(=O)/C(=C(/O)c2ccc(Cl)cc2)C1c1ccccn1 (configuration not stated) ?
Response line: 0 (no)

Prompt line: Tell me the assay call for CCOc1ccc(N=C2C(=O)N(CN3CCOCC3)c3ccccc32)cc1 please.
Response line: 0 (no)

Prompt line: Would you mind telling me which call this test gave O=S(=O)(c1ccccc1)N1CCC(N2CCN(c3ccccc3)CC2)CC1 ?
Response line: 0 (no)

Prompt line: Each compound tested received a call. Report the one for COC(=O)c1ccccc1NC(=O)C1COc2ccccc2O1 (configuration not stated) .
Response line: 0 (no)

Prompt line: Test call, this compound: COc1cc(-n2c3nc4ccccc4nc3c3c(=O)n(Cc4ccco4)cnc32)cc(OC)c1OC
Response line: 0 (no)

Prompt line: Hello, I am checking results. What call was entered for Cc1ccc2[nH]c3c(c2c1)CN(C(=O)CN1CC(C)OC(C)C1)CC3 (configuration not stated) ?
Response line: 0 (no)

Prompt line: Returns: the outcome recorded for CCC(C)Nc1nc(OC)nc(N(C)C#N)n1 (configuration not stated) in this assay.
Response line: 0 (no)

The reported measurements were obtained from PubChem BioAssay AID371.
